These entries and their values trace back to ChEMBL document CHEMBL5137004.

- system: Urease (Canavalia ensiformis)
- Sequence (P07374 whole entry): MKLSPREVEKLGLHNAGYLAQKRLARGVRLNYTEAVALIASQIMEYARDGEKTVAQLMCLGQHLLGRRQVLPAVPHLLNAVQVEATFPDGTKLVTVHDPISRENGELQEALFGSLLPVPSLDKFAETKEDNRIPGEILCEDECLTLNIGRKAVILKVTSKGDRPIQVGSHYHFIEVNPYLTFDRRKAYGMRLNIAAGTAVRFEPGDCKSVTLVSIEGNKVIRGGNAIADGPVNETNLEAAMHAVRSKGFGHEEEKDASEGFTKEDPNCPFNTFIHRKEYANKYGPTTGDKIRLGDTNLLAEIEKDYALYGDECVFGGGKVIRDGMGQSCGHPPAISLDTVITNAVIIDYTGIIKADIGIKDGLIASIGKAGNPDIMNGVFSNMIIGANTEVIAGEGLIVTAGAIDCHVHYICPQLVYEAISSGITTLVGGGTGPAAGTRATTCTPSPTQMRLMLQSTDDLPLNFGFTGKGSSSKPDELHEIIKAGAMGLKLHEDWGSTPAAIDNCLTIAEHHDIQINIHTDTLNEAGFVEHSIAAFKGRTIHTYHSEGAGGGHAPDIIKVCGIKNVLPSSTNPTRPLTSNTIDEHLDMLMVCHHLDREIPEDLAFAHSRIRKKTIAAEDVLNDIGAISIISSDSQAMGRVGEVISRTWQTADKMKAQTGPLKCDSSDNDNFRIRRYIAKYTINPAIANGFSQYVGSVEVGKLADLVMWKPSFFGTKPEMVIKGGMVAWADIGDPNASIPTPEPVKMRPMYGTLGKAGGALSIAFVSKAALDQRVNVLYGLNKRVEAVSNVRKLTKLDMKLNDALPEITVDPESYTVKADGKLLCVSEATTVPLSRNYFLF
- assay name: Inhibition of jack bean urease assessed as reduction on ammonia production using urea as substrate preincubated for 15 mins followed by substrate addition and measured after 15 mins by indophenol method
experimental endpoint: pIC50
One number for each entry, as −log10 of the molar value.

Give recorded pIC50 with Urease (Canavalia ensiformis) for the following compound: CC(C)NCC(O)COc1ccc(CC(N)=O)cc1 (stereo unspecified)
4.19

====

- system: Urease (Canavalia ensiformis)
- assay name: Inhibition of jack bean urease
experimental endpoint: pIC50
One number for each entry, as −log10 of the molar value.

[[record]]
compound = "CCNc1cc2c(cc1C)C1(c3cc(C)c(NCC)cc3O2)c2ccccc2C(=O)N1NC(=O)c1ccccc1"
experimental_endpoint = "pIC50"
reported_result = 6.96

[[record]]
compound = "NNC(=O)c1ccc(C(=O)Cn2nc(-c3ccccc3O)nc2-c2ccccc2O)cc1"
experimental_endpoint = "pIC50"
reported_result = 5.49

[[record]]
compound = "O=C(Cc1nnn[nH]1)Cn1nc(-c2ccccc2O)nc1-c1ccccc1O"
experimental_endpoint = "pIC50"
reported_result = 5.90


Would you kindly look at the next entry?
Item under review: O=C(/C=C/c1ccc(O)c(O)c1)O[C@@H]1C[C@](O)(C(=O)Nc2ccc(-c3ccc(Cl)cc3[N+](=O)[O-])cc2)CC(O)C1O (some centres undefined) . Reported pIC50?
4.96
